# tgt: Neurogenic locus notch homolog protein 2 (Homo sapiens) (UniProt Q04721)
# Sequence (Q04721 whole entry, looked up): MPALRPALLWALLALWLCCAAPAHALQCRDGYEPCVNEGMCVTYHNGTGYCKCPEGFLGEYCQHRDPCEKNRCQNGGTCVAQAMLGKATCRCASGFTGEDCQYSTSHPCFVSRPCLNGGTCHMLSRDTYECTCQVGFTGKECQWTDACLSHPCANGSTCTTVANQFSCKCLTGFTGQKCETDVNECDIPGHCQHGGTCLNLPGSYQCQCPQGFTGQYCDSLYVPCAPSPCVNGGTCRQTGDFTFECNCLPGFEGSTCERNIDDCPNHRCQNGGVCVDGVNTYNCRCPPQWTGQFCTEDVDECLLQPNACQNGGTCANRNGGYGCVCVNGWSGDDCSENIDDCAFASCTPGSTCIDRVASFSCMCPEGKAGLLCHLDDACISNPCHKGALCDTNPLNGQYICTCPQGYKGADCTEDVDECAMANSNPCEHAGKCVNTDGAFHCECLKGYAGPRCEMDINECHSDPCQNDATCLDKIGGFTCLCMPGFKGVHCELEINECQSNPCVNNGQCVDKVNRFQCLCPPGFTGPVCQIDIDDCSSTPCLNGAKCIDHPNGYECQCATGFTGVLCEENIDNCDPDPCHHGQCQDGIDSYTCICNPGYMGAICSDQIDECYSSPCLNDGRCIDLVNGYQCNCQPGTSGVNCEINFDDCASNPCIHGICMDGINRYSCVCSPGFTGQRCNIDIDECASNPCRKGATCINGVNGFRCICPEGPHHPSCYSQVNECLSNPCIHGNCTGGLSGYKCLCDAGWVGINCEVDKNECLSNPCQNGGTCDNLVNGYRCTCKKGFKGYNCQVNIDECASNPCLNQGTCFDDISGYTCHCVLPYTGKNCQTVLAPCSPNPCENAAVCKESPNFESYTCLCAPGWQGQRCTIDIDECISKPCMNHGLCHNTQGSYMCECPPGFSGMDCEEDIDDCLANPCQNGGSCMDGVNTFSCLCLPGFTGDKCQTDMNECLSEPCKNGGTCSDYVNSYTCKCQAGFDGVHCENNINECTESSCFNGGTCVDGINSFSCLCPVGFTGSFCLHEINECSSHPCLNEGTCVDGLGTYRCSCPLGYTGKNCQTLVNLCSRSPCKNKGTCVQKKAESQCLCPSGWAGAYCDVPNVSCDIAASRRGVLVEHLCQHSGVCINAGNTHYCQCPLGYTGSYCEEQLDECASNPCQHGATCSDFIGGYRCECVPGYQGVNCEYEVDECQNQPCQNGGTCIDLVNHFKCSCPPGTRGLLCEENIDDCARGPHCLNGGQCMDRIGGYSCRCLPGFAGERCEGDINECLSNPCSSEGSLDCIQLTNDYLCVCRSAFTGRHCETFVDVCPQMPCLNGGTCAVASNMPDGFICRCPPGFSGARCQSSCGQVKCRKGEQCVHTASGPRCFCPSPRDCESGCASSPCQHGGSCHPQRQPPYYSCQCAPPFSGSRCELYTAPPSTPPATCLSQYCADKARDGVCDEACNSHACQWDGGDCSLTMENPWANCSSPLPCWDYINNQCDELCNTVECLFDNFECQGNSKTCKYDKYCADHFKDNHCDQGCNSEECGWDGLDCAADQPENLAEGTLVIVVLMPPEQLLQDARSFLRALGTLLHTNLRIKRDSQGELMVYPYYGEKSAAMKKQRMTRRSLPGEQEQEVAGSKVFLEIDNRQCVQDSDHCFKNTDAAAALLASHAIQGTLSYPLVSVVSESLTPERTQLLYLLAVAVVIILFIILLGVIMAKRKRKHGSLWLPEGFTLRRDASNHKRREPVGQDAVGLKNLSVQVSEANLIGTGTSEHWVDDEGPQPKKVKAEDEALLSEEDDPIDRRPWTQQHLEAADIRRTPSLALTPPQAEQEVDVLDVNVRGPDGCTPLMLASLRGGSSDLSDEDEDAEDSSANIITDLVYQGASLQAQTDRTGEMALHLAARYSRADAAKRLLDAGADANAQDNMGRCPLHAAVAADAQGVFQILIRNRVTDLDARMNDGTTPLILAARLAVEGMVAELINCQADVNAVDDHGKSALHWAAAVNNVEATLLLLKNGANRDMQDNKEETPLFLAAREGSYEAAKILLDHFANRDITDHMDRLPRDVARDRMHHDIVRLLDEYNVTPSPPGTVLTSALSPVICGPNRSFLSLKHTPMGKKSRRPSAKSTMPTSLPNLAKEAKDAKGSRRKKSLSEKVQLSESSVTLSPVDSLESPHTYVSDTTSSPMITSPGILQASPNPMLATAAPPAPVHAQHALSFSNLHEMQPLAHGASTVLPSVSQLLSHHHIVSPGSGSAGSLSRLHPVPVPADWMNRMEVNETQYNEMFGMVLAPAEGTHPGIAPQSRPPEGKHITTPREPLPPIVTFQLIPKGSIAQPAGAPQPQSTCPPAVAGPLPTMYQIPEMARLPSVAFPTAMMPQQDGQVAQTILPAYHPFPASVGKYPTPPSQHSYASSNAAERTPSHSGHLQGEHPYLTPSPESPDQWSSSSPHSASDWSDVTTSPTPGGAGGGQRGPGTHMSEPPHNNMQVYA
# protocolDetails: Notch2 binders on small-molecule microarrays, primary screen, biochemical, small-molecule microarray, 635 nm fluorescence, stem cell growth factors (AID 1073)
# conditionSummary: Notch2 binding, higher = more signal
Parameter composite z-score: see the listing below.

# molecule, composite z-score
measured = [
    ("O=C1O[C@@H](c2ccccc2)[C@@H](c2ccccc2)N2[C@@H](c3ccc(OCCO)cc3)[C@]3(C(=O)Nc4ccc(C#CCCO)cc43)[C@@H](C(=O)N3CCCCCCC3)[C@H]12", 1.36),
    ("Cc1cc(C)c(-c2cc([C@H](C)ON=C3[C@H]4CCn5c(=O)n(-c6ccccc6)c(=O)n5[C@H]4[C@H](O)[C@@H]4O[C@H]34)on2)c(C)c1", 0.471),
    ("CCCC=C(CCC)[C@@H](NC(=O)c1ccc(-c2ccccc2)cc1)c1ccc(C(=O)OC)cc1", 1.51),
    ("C#C[C@@H]1Oc2ccccc2S(=O)(=O)N2CCC[C@H]12", 0.133),
    ("c1ccc(C2NCCc3c2[nH]c2ccccc32)cc1 (stereo not given)", -0.443),
    ("CCOC(=O)[C@H](CC(C)C)NC(=O)CCC1CC(OC(=O)NCc2cccc3ccccc23)CC2(CCCC(COC(=O)NCCN3CCOCC3)O2)O1 (stereo not given in full)", 0.999),
    ("CO[C@@H]1COC(=O)CC=C[C@@H](C)COC(=O)[C@H](COCc2ccccc2)NC(=O)CC=C[C@H]1C", -0.75),
    ("CC(C)[Si]1(C(C)C)O[C@@H](c2ccccc2)c2cc(C3CC3)nc(-c3ccccc3)c21", 0.0397),
    ("O=C1NC(=O)C2C1C=CC(C(O)Cc1ccccc1)N2Nc1ccccn1 (stereo not given)", 1.14),
    ("CC(=O)C[C@H](O)[C@@H](NC(=O)OC(C)(C)C)C(C)C", -0.453),
    ("CCOC(=O)NN=C1C[C@@H](O)[C@@H](O)[C@@H]2[C@@H]3C(=O)N(C(C)(C)C)C(=O)[C@@H]3CC[C@@H]12", 0.394),
    ("CC1CC/C=C\\[C@H]2OC34C=CCN(C(C)C)C(=O)[C@H]3N(CCCO)C(=O)[C@@H]4C2C(=O)O1 (stereo not given in full)", -0.673),
    ("CCc1cc2c(nc1CC)CCN(CCC(C)=NO[C@@H](C)c1cc(-c3c(C)cc(C)cc3C)no1)C2", -0.89),
    ("CN1C(=O)C2C(C1=O)C1C=C(CCCO)C2C(c2ccc(CN3CCCC3)cc2)N1C (stereo not given)", -0.291),
    ("CO[C@@H]1COC(=O)CCC[C@@H](C)[C@H](OC)COC(=O)[C@H](Cc2ccccc2)NC(=O)CC=C[C@H]1C", -1.13),
    ("COc1cccc([C@H]2Oc3ccc(OC)cc3C(=NOC(C)CN3CCCc4nc(C)c(C)cc43)[C@@H]2O)c1 (stereo not given in full)", 0.687),
    ("CC(=O)OC[C@H]1O[C@@H](ON=C(C)CCN2CCc3nc(-c4ccccc4)c(-c4ccccc4)cc3C2)[C@H](OC(C)=O)[C@@H](OC(C)=O)[C@@H]1OC(C)=O", 1.11),
    ("O=C(CS)NCCCCCNC(=O)[C@H]1C[C@H]2C(=O)N3CCC[C@H]3C(=O)N2[C@H]1c1cccc(OCCO)c1", -0.0686),
    ("COc1ccc([Si](C)(C)[C@H]2[C@H](CCO)O[C@@]3(C(=O)N(Cc4cccc(NC(=O)[C@H](C)O)c4)c4ccccc43)[C@@H]2C)cc1", 0.612),
    ("COc1ccc([Si](C)(C)[C@H]2[C@H](CC(=O)N3CCC[C@H]3CO)O[C@@]3(C(=O)N(Cc4cccc(N5C(=O)COc6ccccc65)c4)c4ccccc43)[C@@H]2C)cc1", 0.308),
    ("COC(=O)CC=C[C@H](C)[C@H](CO)NS(=O)(=O)c1ccc(C)cc1", 0.24),
    ("CC(C)NC(=O)[C@@]1(C)c2ccccc2C(=O)N(Cc2cc(F)cc(C(F)(F)F)c2)[C@H]1c1ccc(CO)cc1", 1.54),
    ("C=C(COC)/C(=C/C[C@H](OC(=O)c1ccncc1)c1ccc(CO)o1)c1cc(C(=O)OC)ccc1OC", 0.614),
    ("CC(CCC(=O)OC[C@H]1O[C@H](C#Cc2ccccc2)C=C[C@@H]1Oc1ccc(C)cc1)=NOC[C@@H](O)COCc1ccco1", -2.5),
    ("CCOC(=O)C[C@H]1[C@H](OC(=O)c2cc3ccccc3oc2=O)[C@@H](NC(=O)c2ccc3ccccc3n2)c2cc(OCCCO)ccc2N1C(=O)c1ccccc1", 0.302),
    ("COc1ccc(O[C@H]2C=C[C@@H](c3ccccc3)O[C@@H]2COC(=O)CCC(C)=NOCC[C@@H]2C=C[C@H](OC(C)=O)[C@@H](COC(C)=O)O2)cc1", -0.086),
    ("CO[C@H]1COC(=O)[C@@H]2CCCN2C(=O)[C@@H](C)COC(=O)CC=C[C@@H]1C", 0.0761),
    ("O=C1[C@H]2[C@H]3[C@H](O)[C@H](O)CC(=NO[C@@H]4O[C@H](CO)[C@@H](O)[C@H](O)[C@H]4O)[C@H]3CC[C@H]2C(=O)N1C1CCCCC1", 0.028),
    ("C=CCOC(=O)[C@H]1[C@@H]2C(=O)O[C@@H](c3ccccc3)[C@@H](c3ccccc3)N2[C@@H](c2ccc(OCCOC(=O)[C@H]3C[C@H]4C(=O)N5CCC[C@H]5C(=O)N4[C@H]3c3cccc(OCCO)c3)cc2)[C@]12C(=O)Nc1ccc(I)cc12", 1.47),
    ("COc1ccc(O[C@@H]2[C@H](O)CO[C@H]2C=CC#Cc2ccccc2)cc1", -0.22),
]
